Listed next: entries and their corresponding solubility.
Assay: Experiment on water solubility (HPLC-UV)
Type: physicochemical
Settings: pH 6.5; FaSSIF (pH6.5); read-out: Solubility FaSSIF (pH6.5)
Please give the number followed by its unit.

stdin: Can you share its solubility? I mean this molecule: CCCCC1=NC2(CCCC2)C(=O)N1Cc1ccc(-c2ccccc2S(=O)(=O)Nc2noc(C)c2C)c(COCC)c1 [Sparsentan, reference compound]
stdout: 80 µg/mL

Now look at this entry.
stdin: Can you share its solubility? I mean this molecule: CCCCC1=NC2(CC3(CC3)C2)C(=O)N1Cc1ccc(-c2ccccc2S(=O)(=O)Nc2noc(C)c2C)c(COCC)c1
stdout: 610 µg/mL

----------
Assay: Pharmacokinetic test in rats
Type: in vivo
Conditions: rat, plasma; SD rats, PO 10 mg/kg; read-out: Cmax
Quantity Measured: Cmax (ng/mL)
The reply should be a number in ng/mL, with the unit left off.

stdin: Can you share its Cmax? I mean this compound: CCCCC1=NC2(CCCC2)C(=O)N1Cc1ccc(-c2ccccc2S(=O)(=O)Nc2noc(C)c2C)c(COCC)c1 [Sparsentan, reference compound]
stdout: 1800

----------
Target: AT1 (Homo sapiens (Human))
Sequence (P30556 whole entry): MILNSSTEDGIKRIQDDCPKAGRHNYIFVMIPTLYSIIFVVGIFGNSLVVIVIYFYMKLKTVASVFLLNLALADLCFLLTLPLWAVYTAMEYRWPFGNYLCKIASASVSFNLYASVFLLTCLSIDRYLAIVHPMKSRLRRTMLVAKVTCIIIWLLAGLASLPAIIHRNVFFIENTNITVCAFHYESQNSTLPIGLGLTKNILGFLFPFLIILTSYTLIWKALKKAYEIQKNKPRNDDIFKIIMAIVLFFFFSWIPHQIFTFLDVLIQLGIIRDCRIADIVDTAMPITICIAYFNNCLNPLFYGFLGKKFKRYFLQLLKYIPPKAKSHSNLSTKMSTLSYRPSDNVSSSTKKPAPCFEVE
Assay: Calcium flux assay on AT1 cell line
Type: cell-based
Details: AT1/HEK293, calcium flux, angiotensin II agonist; read-out: IC50 against AT1
Listed next: entries and their corresponding log10 of IC50.
Response schema: value (number) is log10 of IC50 in units of nM.

Observe how each entry below is paired with its result.
stdin: Can you share its log10 of IC50? I mean this compound: CCCCC1=NC2(CC3(CC3)C2)C(=O)N1Cc1ccc(-c2ccccc2S(=O)(=O)Nc2noc(C)c2C)c(COCC)c1
stdout: 0.46

stdin: Can you share its log10 of IC50? I mean this compound: CCCCC1=NC2(CCCC2)C(=O)N1Cc1ccc(-c2ccccc2S(=O)(=O)Nc2noc(C)c2C)c(COCC)c1 [Sparsentan, reference compound]
stdout: 0.99

stdin: Can you share its log10 of IC50? I mean this compound: CCCCC1=N[C@@]2(CC3C[C@H]3C2)C(=O)N1Cc1ccc(-c2ccccc2S(=O)(=O)Nc2noc(C)c2Cl)c(COCC)c1 (stereo partly drawn)
stdout: 0.55

stdin: Can you share its log10 of IC50? I mean this compound: CCCCC1=N[C@]2(C[C@H]3C[C@H]3C2)C(=O)N1Cc1ccc(-c2ccccc2S(=O)(=O)Nc2noc(C)c2C)c(CN(C)C(=O)CC(C)(C)C)c1
stdout: 2.41

stdin: Can you share its log10 of IC50? I mean this compound: CCCCC1=N[C@@]2(CC3C[C@H]3C2)C(=O)N1Cc1ccc(-c2ccccc2S(=O)(=O)Nc2noc(C)c2C)c(COCC)c1 (stereo partly drawn)
stdout: 0.29

Now look at this entry.
stdin: Can you share its log10 of IC50? I mean this compound: CCCCC1=N[C@]2(C[C@H]3C[C@H]3C2)C(=O)N1Cc1ccc(-c2ccccc2S(=O)(=O)Nc2noc(C)c2C)c(COCC)c1
stdout: 0.68

----------
Biological target: CYP2C19 (Homo sapiens (Human), UniProt P33261)
Sequence (P33261 whole entry): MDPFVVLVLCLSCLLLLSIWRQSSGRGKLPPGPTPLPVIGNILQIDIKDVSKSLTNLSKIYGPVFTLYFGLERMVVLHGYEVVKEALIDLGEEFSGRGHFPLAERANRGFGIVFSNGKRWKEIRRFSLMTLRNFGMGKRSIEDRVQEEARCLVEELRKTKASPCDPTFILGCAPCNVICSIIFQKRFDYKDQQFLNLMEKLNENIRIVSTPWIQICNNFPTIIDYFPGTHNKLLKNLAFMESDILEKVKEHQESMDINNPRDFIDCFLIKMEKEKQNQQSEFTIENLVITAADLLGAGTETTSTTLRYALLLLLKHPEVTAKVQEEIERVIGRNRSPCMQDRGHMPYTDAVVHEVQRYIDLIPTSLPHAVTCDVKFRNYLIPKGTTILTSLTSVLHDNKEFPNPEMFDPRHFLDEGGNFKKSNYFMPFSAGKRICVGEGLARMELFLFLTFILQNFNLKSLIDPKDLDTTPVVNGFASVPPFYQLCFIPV
Assay: Inhibition of cytochrome P450 isozyme CYP2C19
Type: in vitro ADME
Conditions: recombinant enzyme, fluorescence detection; read-out: IC50 CYP2C19
Description: A total of six specific probe substrates of six isozymes of CYPs, i.e., α-Naphthoflavone (CYP1A2), Sulphaphenazole (CYP2C9), Ticlopidine (CYP2C19), Quinidine (CYP2D6), Ketoconazole (CYP3A4), and Montelukast (CYP2C8) were co-incubated with recombinant hepatic drug enzymes CYP1A2, CYP2C9, CYP2C19, CYP2D6, CYP3A4, and CYP2C8 and test compounds, respectively. […]
Quantity Measured: IC50

stdin: Can you share its IC50? I mean this compound: CCCCC1=N[C@@]2(CC3C[C@H]3C2)C(=O)N1Cc1ccc(-c2ccccc2S(=O)(=O)Nc2noc(C)c2Cl)c(COCC)c1 (some centres unmarked) [Example 7]
stdout: > 10 µM

Now look at this entry.
stdin: Can you share its IC50? I mean this compound: CCCCC1=NC2(CCCC2)C(=O)N1Cc1ccc(-c2ccccc2S(=O)(=O)Nc2noc(C)c2C)c(COCC)c1 [Sparsentan, reference compound]
stdout: > 10 µM

----------
Test: Pharmacokinetic test in rats
Format: in vivo
Settings: rat, plasma; SD rats, PO 10 mg/kg vs IV 1 mg/kg; read-out: Bioavailability
Quantity Measured: Bioavailability (%)
The reply should be a number in %, with the unit left off.

stdin: Can you share its Bioavailability? I mean this molecule: CCCCC1=NC2(CCCC2)C(=O)N1Cc1ccc(-c2ccccc2S(=O)(=O)Nc2noc(C)c2C)c(COCC)c1 [Sparsentan, reference compound]
stdout: 20.6

----------
Biological target: UniProt P25101
Test: Calcium flux assay on ETa cell line
Assay type: cell-based
Settings: ETa/HEK293, calcium flux, endothelin-1 agonist; read-out: IC50 activity against ETa (class)
pIC50: −log10 of the molar value. Residues, ends and D or L forms follow the SMILES beside them.
Quantity Measured: pIC50

Observe how each entry below is paired with its result.
stdin: Can you share its pIC50? I mean this compound: CC(C)C[C@@H]1NC(=O)[C@@H](C(C)C)NC(=O)[C@@H]2CCCN2C(=O)[C@@H](CC(=O)O)NC(=O)[C@@H](Cc2c[nH]c3ccccc23)NC1=O [BQ123, reference compound] (HELM PEPTIDE1{L.[dW].[dD].P.[dV]}$PEPTIDE1,PEPTIDE1,1:R1-5:R2$$$V2.0)
stdout: 8.00 to 9.00

stdin: Can you share its pIC50? I mean this compound: CCCCC1=N[C@@]2(CC3C[C@H]3C2)C(=O)N1Cc1ccc(-c2ccccc2S(=O)(=O)Nc2noc(C)c2C)c(COCC)c1 (stereo partly drawn)
stdout: 7.00 to 8.00

Further cases:
stdin: Can you share its pIC50? I mean this compound: CCCCC1=N[C@@]2(CC3C[C@H]3C2)C(=O)N1Cc1ccc(-c2ccccc2S(=O)(=O)Nc2noc(C)c2Cl)c(COCC)c1 (stereo partly drawn)
stdout: 7.00 to 8.00

----------
Listed next: entries and their corresponding pIC50.
Target: CYP2D6 (Homo sapiens (Human))
Sequence (P10635 whole entry): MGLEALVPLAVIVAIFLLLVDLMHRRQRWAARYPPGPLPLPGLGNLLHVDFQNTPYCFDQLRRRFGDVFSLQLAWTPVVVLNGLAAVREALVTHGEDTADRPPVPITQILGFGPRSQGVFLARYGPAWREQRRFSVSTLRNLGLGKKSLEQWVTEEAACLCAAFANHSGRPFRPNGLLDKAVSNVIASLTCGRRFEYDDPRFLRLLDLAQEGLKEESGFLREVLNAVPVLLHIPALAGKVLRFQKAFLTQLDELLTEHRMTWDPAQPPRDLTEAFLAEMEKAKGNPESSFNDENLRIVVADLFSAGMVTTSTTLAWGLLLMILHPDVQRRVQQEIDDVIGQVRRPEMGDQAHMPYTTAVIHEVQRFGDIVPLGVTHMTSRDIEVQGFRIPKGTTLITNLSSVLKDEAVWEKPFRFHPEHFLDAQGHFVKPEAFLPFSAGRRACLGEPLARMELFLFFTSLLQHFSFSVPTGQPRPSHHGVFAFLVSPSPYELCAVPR
Experiment: Inhibition of cytochrome P450 isozyme CYP2D6
Assay type: in vitro ADME
Details: recombinant enzyme, fluorescence detection; read-out: IC50 CYP2D6
pIC50: −log10 of the molar value.

stdin: // fetch CYP2D6 (Homo sapiens (Human)) pIC50 for CCCCC1=N[C@@]2(CC3C[C@H]3C2)C(=O)N1Cc1ccc(-c2ccccc2S(=O)(=O)Nc2noc(C)c2Cl)c(COCC)c1 (some centres unmarked) [Example 7]
stdout: < 5.00

Further cases:
stdin: // fetch CYP2D6 (Homo sapiens (Human)) pIC50 for CCCCC1=NC2(CCCC2)C(=O)N1Cc1ccc(-c2ccccc2S(=O)(=O)Nc2noc(C)c2C)c(COCC)c1 [Sparsentan, reference compound]
stdout: < 5.00

----------
Target: CYP3A4 (Homo sapiens (Human), UniProt P08684)
Sequence (P08684 whole entry): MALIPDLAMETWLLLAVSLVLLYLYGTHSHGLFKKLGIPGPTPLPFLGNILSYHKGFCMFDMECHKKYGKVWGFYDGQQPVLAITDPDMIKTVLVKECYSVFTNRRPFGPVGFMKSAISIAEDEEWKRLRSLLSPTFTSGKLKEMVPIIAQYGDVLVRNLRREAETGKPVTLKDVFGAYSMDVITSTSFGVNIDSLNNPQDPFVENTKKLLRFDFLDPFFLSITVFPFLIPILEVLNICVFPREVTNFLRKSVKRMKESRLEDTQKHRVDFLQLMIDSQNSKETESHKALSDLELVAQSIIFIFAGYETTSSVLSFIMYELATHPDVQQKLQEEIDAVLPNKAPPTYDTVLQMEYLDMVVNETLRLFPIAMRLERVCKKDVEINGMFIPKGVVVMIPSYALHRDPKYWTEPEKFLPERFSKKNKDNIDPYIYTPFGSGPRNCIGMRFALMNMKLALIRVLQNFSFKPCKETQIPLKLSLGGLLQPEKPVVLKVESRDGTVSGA
Experiment: Inhibition of cytochrome P450 isozyme CYP3A4
Type: in vitro ADME
Conditions: recombinant enzyme, fluorescence detection; read-out: IC50 CYP3A4
Quantity Measured: IC50

stdin: Can you share its IC50? I mean this molecule: CCCCC1=NC2(CCCC2)C(=O)N1Cc1ccc(-c2ccccc2S(=O)(=O)Nc2noc(C)c2C)c(COCC)c1 [Sparsentan, reference compound]
stdout: 1 to 10 µM

stdin: Can you share its IC50? I mean this molecule: CCCCC1=N[C@@]2(CC3C[C@H]3C2)C(=O)N1Cc1ccc(-c2ccccc2S(=O)(=O)Nc2noc(C)c2Cl)c(COCC)c1 (some centres unmarked) [Example 7]
stdout: > 10 µM

----------
Listed next: entries and their corresponding solubility.
Experiment: Experiment on water solubility (HPLC-UV)
Type: physicochemical
Details: pH 5; FeSSIF (pH5.0); read-out: Solubility FeSSIF (pH5.0)
The reply should be a number in µg/mL, with the unit left off.

stdin: Can you share its solubility? I mean this compound: CCCCC1=NC2(CC3(CC3)C2)C(=O)N1Cc1ccc(-c2ccccc2S(=O)(=O)Nc2noc(C)c2C)c(COCC)c1 [Example 1]
stdout: 200

Now look at this entry.
stdin: Can you share its solubility? I mean this compound: CCCCC1=NC2(CCCC2)C(=O)N1Cc1ccc(-c2ccccc2S(=O)(=O)Nc2noc(C)c2C)c(COCC)c1 [Sparsentan, reference compound]
stdout: 20

----------
Biological target: ETa (Homo sapiens (Human))
Sequence (P25101 21-427): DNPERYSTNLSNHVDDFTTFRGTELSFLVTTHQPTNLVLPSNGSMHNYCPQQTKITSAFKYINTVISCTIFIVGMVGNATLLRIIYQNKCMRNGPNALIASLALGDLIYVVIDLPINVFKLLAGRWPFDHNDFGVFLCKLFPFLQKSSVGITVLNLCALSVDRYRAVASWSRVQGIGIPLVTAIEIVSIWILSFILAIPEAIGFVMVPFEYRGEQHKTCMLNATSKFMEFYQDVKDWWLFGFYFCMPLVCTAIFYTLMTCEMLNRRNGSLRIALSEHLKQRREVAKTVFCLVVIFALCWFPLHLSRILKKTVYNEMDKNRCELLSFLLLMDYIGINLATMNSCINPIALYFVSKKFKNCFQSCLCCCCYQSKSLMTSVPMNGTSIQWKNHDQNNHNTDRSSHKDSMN
Assay: Calcium flux assay on ETa cell line
Type: cell-based
Details: ETa/HEK293, calcium flux, endothelin-1 agonist; read-out: IC50 against ETa
Residues, ends and D or L forms follow the SMILES beside them.
Listed next: entries and their corresponding pIC50.
# pIC50 = -log10(concentration in molar units)

Observe how each entry below is paired with its result.
stdin: Can you share its pIC50? I mean this molecule: CCCCC1=NC2(CCCC2)C(=O)N1Cc1ccc(-c2ccccc2S(=O)(=O)Nc2noc(C)c2C)c(COCC)c1 [Sparsentan, reference compound]
stdout: 7.09

stdin: Can you share its pIC50? I mean this molecule: CC(C)C[C@@H]1NC(=O)[C@@H](C(C)C)NC(=O)[C@@H]2CCCN2C(=O)[C@@H](CC(=O)O)NC(=O)[C@@H](Cc2c[nH]c3ccccc23)NC1=O [BQ123, reference compound] (HELM PEPTIDE1{L.[dW].[dD].P.[dV]}$PEPTIDE1,PEPTIDE1,1:R1-5:R2$$$V2.0)
stdout: 8.59

stdin: Can you share its pIC50? I mean this molecule: CCCCC1=N[C@@]2(CC3C[C@H]3C2)C(=O)N1Cc1ccc(-c2ccccc2S(=O)(=O)Nc2noc(C)c2C)c(COCC)c1 (stereo partly shown)
stdout: 7.98

Further cases:
stdin: Can you share its pIC50? I mean this molecule: CCCCC1=N[C@]2(C[C@H]3C[C@H]3C2)C(=O)N1Cc1ccc(-c2ccccc2S(=O)(=O)Nc2noc(C)c2C)c(COCC)c1
stdout: 6.88
